Study System: human TLR9 (Homo sapiens, UniProt Q9NR96)
Sequence (Q9NR96 26-1032): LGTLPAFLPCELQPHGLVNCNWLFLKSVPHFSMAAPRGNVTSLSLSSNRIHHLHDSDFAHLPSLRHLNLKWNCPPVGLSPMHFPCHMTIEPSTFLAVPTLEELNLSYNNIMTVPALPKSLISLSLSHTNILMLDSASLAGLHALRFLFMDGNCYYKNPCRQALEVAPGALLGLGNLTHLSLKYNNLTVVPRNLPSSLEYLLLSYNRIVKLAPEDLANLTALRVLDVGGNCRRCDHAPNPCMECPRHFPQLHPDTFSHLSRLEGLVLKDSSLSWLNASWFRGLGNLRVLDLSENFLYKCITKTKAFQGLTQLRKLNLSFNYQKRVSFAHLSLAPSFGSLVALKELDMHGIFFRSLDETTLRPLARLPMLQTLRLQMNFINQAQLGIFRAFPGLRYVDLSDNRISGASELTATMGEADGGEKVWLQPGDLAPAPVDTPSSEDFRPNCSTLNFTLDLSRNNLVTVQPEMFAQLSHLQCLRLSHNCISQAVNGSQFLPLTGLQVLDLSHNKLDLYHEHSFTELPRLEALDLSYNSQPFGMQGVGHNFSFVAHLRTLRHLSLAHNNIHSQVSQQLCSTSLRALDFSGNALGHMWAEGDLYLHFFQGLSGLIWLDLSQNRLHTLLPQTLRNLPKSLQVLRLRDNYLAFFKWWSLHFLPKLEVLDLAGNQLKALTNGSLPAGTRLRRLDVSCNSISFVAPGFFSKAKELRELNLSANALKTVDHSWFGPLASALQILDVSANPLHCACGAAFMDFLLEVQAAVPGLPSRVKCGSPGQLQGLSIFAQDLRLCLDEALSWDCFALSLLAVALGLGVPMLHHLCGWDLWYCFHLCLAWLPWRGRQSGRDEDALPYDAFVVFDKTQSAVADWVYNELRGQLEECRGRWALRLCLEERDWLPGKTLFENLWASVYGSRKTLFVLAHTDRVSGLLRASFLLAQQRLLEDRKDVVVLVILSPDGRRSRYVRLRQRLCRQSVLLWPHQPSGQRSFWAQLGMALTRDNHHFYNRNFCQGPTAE
Measurement Protocol: HEK293-Blue-hTLR-9 cells assay
Experimental Setup: HEK293-Blue-hTLR9 cells, ODN2006 stimulation, 20 hrs, SEAP reporter; read-out: HEK/hTLR9 IC50
Value Type: IC50 (nM)
Answer with a number only, understood to be in nM.

Q. Observed IC50 on human TLR9 (Homo sapiens, UniProt Q9NR96) for C[C@@H]1CN(c2ccc(C#N)c3ncccc23)C[C@@H]2c3ccc(N4CCNC[C@H](O)C4)cc3CN12 [Example 53A] , please.
A. 56

Q. Please state recorded IC50 (tested on human TLR9 (Homo sapiens, UniProt Q9NR96)) of `C[C@@H]1CN(c2ccc(C#N)c3ncccc23)C[C@@H]2c3cccc(N[C@H]4CNC[C@H]4F)c3CN12`
A. 126

Q. Request: IC50, test system human TLR9 (Homo sapiens, UniProt Q9NR96), entry `C[C@@H]1CN(c2ccc(C#N)c3ncccc23)C[C@@H]2c3ccc(N4C[C@H](N)[C@@H](F)C4)cc3CN12`
A. 186

Q. What value of IC50 on human TLR9 (Homo sapiens, UniProt Q9NR96) does `C[C@@H]1CN(c2ccc(C#N)n3nccc23)C[C@@H]2c3ccc(N4CC5CNCC(C4)O5)cc3CN12` have?
A. 67.9

Q. Look up IC50 with human TLR9 (Homo sapiens, UniProt Q9NR96) for this molecule: `C[C@@H]1CN(c2ccc(C#N)c3ncccc23)C[C@@H]2c3ccc(N4C[C@@H]5CNCCN5C4=O)cc3CN12`
A. 115

Q. # returns recorded IC50 (system: human TLR9 (Homo sapiens, UniProt Q9NR96)) for `CO[C@H]1CNCC[C@H]1Nc1ccc2c(c1)CN1[C@H](C)CN(c3ccc(C#N)c4ncccc34)C[C@H]21`
A. 141

Q. API: value(readout=IC50, system=human TLR9 (Homo sapiens, UniProt Q9NR96)) for record C[C@@H]1CN(c2ccc(C#N)c3ncccc23)C[C@@H]2c3ccc(N[C@H]4CNCCOC4)cc3CN12 [Example 56B]
A. 92.1

Q. Which IC50 is reported with human TLR9 (Homo sapiens, UniProt Q9NR96) for this entry: `C[C@@H]1CN(c2ccc(C#N)c3ncccc23)C[C@@H]2c3ccc(NC[C@@H]4C[C@H](F)CN4)cc3CN12` ?
A. 74

* * *

Exercise: state measured pIC50 for each of the compounds provided.
Study System: human TLR8 (Homo sapiens, UniProt Q9NR97)
Sequence (Q9NR97 27-1041): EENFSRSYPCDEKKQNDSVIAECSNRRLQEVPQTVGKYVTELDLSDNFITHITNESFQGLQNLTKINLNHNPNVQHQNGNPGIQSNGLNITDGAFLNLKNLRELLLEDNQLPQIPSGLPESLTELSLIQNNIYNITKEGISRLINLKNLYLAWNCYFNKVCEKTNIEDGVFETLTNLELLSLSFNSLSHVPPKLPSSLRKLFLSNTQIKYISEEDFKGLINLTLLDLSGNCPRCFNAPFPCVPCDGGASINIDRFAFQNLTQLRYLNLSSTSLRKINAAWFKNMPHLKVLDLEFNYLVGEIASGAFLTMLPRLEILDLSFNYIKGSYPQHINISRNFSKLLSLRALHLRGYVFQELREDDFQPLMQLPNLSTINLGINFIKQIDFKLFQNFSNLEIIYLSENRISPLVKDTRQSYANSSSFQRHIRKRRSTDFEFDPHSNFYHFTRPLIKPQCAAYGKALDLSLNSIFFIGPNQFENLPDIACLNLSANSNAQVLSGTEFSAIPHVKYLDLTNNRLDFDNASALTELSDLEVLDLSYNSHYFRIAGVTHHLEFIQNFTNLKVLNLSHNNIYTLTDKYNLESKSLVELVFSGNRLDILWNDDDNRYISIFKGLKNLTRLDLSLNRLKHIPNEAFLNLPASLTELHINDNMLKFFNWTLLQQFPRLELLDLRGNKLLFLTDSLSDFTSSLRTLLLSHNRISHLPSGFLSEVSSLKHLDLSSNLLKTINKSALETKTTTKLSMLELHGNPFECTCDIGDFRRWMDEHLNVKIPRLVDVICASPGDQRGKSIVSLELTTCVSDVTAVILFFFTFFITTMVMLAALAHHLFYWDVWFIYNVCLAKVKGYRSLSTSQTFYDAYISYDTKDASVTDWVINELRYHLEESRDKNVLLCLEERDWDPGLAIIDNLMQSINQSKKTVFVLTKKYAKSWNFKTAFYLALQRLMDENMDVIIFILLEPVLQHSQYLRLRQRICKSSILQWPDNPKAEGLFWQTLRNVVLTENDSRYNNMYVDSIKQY
Measurement Protocol: HEK293-Blue-hTLR-8 cells assay
Experimental Setup: HEK293-Blue-hTLR8 cells, R848 stimulation, 20 hrs, SEAP reporter; read-out: HEK/hTLR8 IC50
pIC50: −log10 of the molar value.

Q. Please report the recorded pIC50 for C[C@@H]1CN(c2ccc(C#N)c3ncccc23)C[C@@H]2c3ccc(N4C[C@H](N)[C@@H](F)C4)cc3CN12 [Example 49] .
A. 9.22

Q. // returns reported pIC50 for input [2H]c1ccc2c(N3C[C@@H](C)N4Cc5cc(N[C@H]6CNC[C@H]6F)ccc5[C@H]4C3)ccc(C#N)c2n1 [Example 91]
A. 9.22

Q. Which pIC50 is listed for N#Cc1ccc(N2CCN3Cc4cc(N5CCNCC5)ccc4C3C2)c2cccnc12 (stereo not shown) [Example 3] ?
A. > 8.49

Q. I am curious: what pIC50 value has been reported for C[C@@H]1CN(c2ccc(C#N)c3ncccc23)C[C@@H]2c3ccc(N4CCNC[C@H](O)C4)cc3CN12 [Example 53A] ?
A. > 8.49

Q. Please look up its pIC50: C[C@@H]1CN(c2ccc(C#N)c3ncccc23)C[C@@H]2c3ccc(NC[C@H]4CNCCO4)cc3CN12 [Example 59]
A. > 8.49

Q. Look up pIC50 for this compound: CO[C@@H]1CNC[C@H]1Nc1ccc2c(c1)CN1[C@H](C)CN(c3ccc(C#N)c4ncccc34)C[C@H]21 [Example 34]
A. > 8.49

Q. Requested read-out: pIC50. Entry: C[C@@H]1CN(c2ccc(C#N)c3ncccc23)C[C@@H]2c3cccc(NCCN4CC[C@H](O)C4)c3CN12 [Example 80]
A. > 8.49
